System: 3-phosphoinositide-dependent protein kinase 1 (Homo sapiens) | Read-out: pIC50 | Origin: multiple publications
pIC50: −log10 of the molar value.
measurement-label: pIC50

{"columns": ["compound", "reported"],
 "data": [
  ["COc1cc(-c2cncnc2)cc2cnc(Nc3cc(CN(C)C)cc(NC(C)=O)c3)nc12", "> 5.30"],
  ["COc1cc2nc(Nc3cc(CN4CCOCC4)cc(NC(C)=O)c3)ncc2cc1-c1nccs1", "> 5.30"],
  ["NCCCc1ccc(-n2cnc3cnc4ccc(C#Cc5ccc(S(N)(=O)=O)cc5)cc4c32)cc1", "≥ 6.30"],
  ["NC(=O)c1ccc(Nc2ncc3cc(Br)ccc3n2)cc1", "> 5.30"],
  ["COc1cc2ncc3cnc4c(C)c(N)ccc4c3c2cc1OC", 5.60],
  ["COc1ncccc1-c1cc(OC)c2nc(Nc3cc(CN(C)C)cc(NC(C)=O)c3)ncc2c1", "5.00 to 5.30"],
  ["CC(C)n1cc(-c2cnc3[nH]cc(-c4cc(C(C)(O)c5ccccc5F)nc(N)n4)c3n2)cn1 (stereo not drawn)", 6.46],
  ["CC(=O)Nc1cc(CN2CCCC2)cc(Nc2ncc3cc(-c4nccs4)ccc3n2)c1", "> 5.30"],
  ["COc1cc(Br)cc2cnc(Nc3ccc(S(N)(=O)=O)cc3)nc12", "> 5.30"],
  ["C#Cc1ccc2nc(Nc3cc(CN4CCOCC4)cc(NC(C)=O)c3)ncc2c1", "> 5.30"],
  ["N#Cc1cc(CN2CCOCC2)cc(Nc2ncc3cc(Br)ccc3n2)c1", "> 5.30"],
  ["CCC(O)(c1cccc(F)c1)c1cc(-c2c[nH]c3ncc(-c4cnn(C)c4)nc23)nc(N)n1 (stereo not drawn)", 7.44]
]}
